Tested on: Escherichia coli
assayDetails: Antimicrobial activity against Escherichia coli ATCC 9637 after 24 hrs by standard broth microdilution method
Assay type: functional
runParameters: ATCC 9637, 24 h
I'd be grateful if you could share measured MIC for these entries.

Data point: COc1ccc(Oc2ccccc2N/C(=N/c2ccccc2)NCCCCNc2ccnc3cc(Cl)ccc23)cc1 ; MIC = > 50 µg/mL

Please supply MIC for each of the following items, keeping them in order.
1. COc1ccc(Oc2ccccc2N/C(=N/c2ccccc2)NCCNc2ccnc3cc(Cl)ccc23)cc1
2. COC(=O)/C(C)=C/c1ccc(Oc2ccccc2N/C(=N/c2ccccc2)NCCCNc2ccnc3cc(Cl)ccc23)cc1

Outgoing:
1. > 50 µg/mL
2. > 50 µg/mL

Please supply MIC for each of the following items, keeping them in order.
1. COc1ccc(Oc2ccccc2N/C(=N/c2ccc(Cl)cc2)NCCCCNc2ccnc3cc(Cl)ccc23)cc1
2. COc1cccc(OC)c1C(=O)N[C@@H]1C(=O)N2[C@@H]1SC(C)(C)[C@@H]2C(=O)O
3. COC(=O)/C(C)=C/c1ccc(Oc2ccccc2N/C(=N/c2cccc(Cl)c2)NCc2ccccc2)cc1

Outgoing:
1: > 50 µg/mL; 2: > 50 µg/mL; 3: > 50 µg/mL

Numbers sourced from ChEMBL document CHEMBL3232804.
